assay: Plasma clearance in Sprague-Dawley rat at 1.1 mg/kg, iv or 2.1 mg/kg, po; assay type: ADME, organism-based
test.readout: clearance
Express your answer as a number followed by its unit.

Request: Could you tell me which clearance is on file for O=C(O)Cn1ccc2c(OCCCN(Cc3cccc(C(F)(F)F)c3Cl)CC(c3ccccc3)c3ccccc3)cccc21 ?
Result: 14.6 mL/min/kg

====

target: Oxysterols receptor LXR-alpha (Homo sapiens); test: Agonist activity at LXRalpha by FRET assay
Sequence (Q13133 whole entry): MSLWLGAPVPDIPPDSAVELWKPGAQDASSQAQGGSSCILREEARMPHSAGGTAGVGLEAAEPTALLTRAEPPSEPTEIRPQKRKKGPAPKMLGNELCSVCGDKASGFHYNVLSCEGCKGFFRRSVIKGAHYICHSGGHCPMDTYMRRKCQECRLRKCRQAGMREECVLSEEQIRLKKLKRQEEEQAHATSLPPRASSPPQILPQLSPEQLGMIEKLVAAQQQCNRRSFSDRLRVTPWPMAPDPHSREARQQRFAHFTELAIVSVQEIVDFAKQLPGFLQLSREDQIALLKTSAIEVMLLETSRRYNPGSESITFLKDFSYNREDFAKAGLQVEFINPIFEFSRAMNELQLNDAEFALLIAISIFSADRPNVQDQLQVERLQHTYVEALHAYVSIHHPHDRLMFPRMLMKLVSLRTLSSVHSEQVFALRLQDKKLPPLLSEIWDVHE
Kindly supply the reported EC50 values for the records listed here.
Give bare numbers, in nM.

// below: answered compounds
                                chem_smiles  test_readout  measured_result
0  CS(=O)(=O)n1ccc2c(OCCCN(Cc3cccc(C(F)(F)F)c3Cl)CC(c3ccccc3)c3ccccc3)cccc21          EC50               20
1  COC(=O)Cc1c[nH]c2ccc(OCCCN(Cc3cccc(C(F)(F)F)c3Cl)CC(c3ccccc3)c3ccccc3)cc12          EC50              630
2  Cc1cc(OCCCN(Cc2cccc(C(F)(F)F)c2Cl)CC(c2ccccc2)c2ccccc2)n2ncnc2n1          EC50              790
3  FC(F)(F)c1cccc(CN(CCCOc2cccc3[nH]ccc23)CC(c2ccccc2)c2ccccc2)c1Cl          EC50               60
4  COC(=O)c1cc(OCCCN(Cc2cccc(C(F)(F)F)c2Cl)CC(c2ccccc2)c2ccccc2)no1          EC50               63

Please give EC50, item by item, for the list that follows.
1. FC(F)(F)c1cccc(CN(CCCOc2ccc3[nH]ccc3c2)CC(c2ccccc2)c2ccccc2)c1Cl
2. FC(F)(F)c1cccc(CN(CCCOc2n[nH]c3ccccc23)CC(c2ccccc2)c2ccccc2)c1Cl

Result:
[226, 110]
